# target-system: Human Polymorphonuclear Leukocyte Elastase (Homo sapiens, UniProt P08246)
# Construct: Crude extract of human polymorphonuclear leukocytes (PMN) containing elastase activity; endogenous in cells; host or cells: human polymorphonuclear leukocytes (crude extract)
# Sequence (P08246 30-247 limits assumed): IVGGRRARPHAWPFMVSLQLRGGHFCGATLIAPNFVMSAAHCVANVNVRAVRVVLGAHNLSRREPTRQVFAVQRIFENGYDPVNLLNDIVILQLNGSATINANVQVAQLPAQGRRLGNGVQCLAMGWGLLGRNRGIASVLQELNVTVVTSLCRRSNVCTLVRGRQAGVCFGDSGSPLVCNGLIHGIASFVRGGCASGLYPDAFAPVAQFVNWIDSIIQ
# procedure-summary: Inhibition of human polymorphonuclear leukocyte (granulocyte) elastase via hydrolysis of Boc-AAPAN
# Format: biochemical
# setup-conditions: crude human PMN extract, 0.2 mM Boc-AAPAN, pH 7.5, 410 mμ, 2 minutes after zero time; read-out: IC50 (dosage for 50% inhibition of the enzyme activity) (converted)
# Description: Enzyme assay for the Inhibition of Human Polymorphonuclear Leukocyte Elastase Via Hydrolysis of N-t-Boc-alanyl-alanyl-prolylalanine-p-nitroanilide 0.05M TES (N-tris[hydroxymethyl]methyl-2-amino-ethanesulfonic acid) buffer, pH 7.5. […] To 1.0 ml of 0.2 mM Boc-AAPAN in a cuvette, 0.01-0.1 ml of DMSO with or without inhibitor was added. […] 0.05 Milliliters of PMN extract was then added and the αOD/minute at 410 mμ was measured and recorded. […]
assay-endpoint: IC50 (µM)

- CC(OC(=O)N(Cc1ccccc1)C(=O)NCc1ccccc1)[C@H]1C(=O)N2[C@@H](C(=O)OCc3ccccc3)C(C)(C)S(=O)(=O)[C@H]12 (stereo partly drawn) [drawing 30 / 2 / OBZ]: 0.0789
- CO[C@H]1C(=O)N2[C@@H](C(=O)OCC(F)(F)F)C(C)(C)S(=O)(=O)[C@H]12: 11.6
- CC(OC(=O)OCc1ccc([N+](=O)[O-])cc1)[C@H]1C(=O)N2[C@@H](C(=O)OCc3ccccc3)C(C)(C)S(=O)(=O)[C@H]12 (stereo partly drawn) [drawing 27 / 2 / OBZ]: 0.366
- CC[C@@]1(NC(=O)C(F)(F)F)C(=O)N2[C@@H](C(=O)OCc3ccccc3)C(C)(C)[S+]([O-])[C@@H]21 (stereo partly drawn): 11.2
- CO[C@H]1C(=O)N2[C@@H](C(=O)OCC(=O)OC(C)(C)C)C(C)(C)S(=O)(=O)[C@H]12: 7.95
- Cc1ccc(S(=O)(=O)C[C@H]2C(=O)N3[C@@H]2[S+]([O-])C(C)(C)[C@@H]3C(=O)OCc2ccccc2)cc1 (stereo partly drawn): 8.41
